Measured values drawn from ChEMBL document CHEMBL5291721 for this set.

- Assay System: Adenosine receptor A3 (Homo sapiens); further: assay procedure not described here
- Sequence (P0DMS8 whole entry): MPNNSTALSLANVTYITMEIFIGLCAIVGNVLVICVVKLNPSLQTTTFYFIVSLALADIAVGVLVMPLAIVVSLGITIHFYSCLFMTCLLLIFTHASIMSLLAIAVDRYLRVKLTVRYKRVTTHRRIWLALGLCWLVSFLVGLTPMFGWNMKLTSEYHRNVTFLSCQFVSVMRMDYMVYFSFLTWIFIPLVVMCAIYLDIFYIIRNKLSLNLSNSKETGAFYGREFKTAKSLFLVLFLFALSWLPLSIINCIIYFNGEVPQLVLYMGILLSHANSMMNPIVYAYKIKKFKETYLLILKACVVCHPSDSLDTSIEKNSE
AC50 values, listed per item

In the examples that follow, each entry is paired with its recorded AC50.
input: Look up AC50: `CC(C)CN(C[C@@H](O)[C@H](Cc1ccccc1)NC(=O)O[C@H]1CCOC1)S(=O)(=O)c1ccc(N)cc1`
output: > 30 µM

input: Look up AC50: `CCN(C(C)=O)c1cccc(-c2ccnc3c(C#N)cnn23)c1`
output: > 30 µM

input: Look up AC50: `CCN(CC)CCn1c(=O)c(Cc2ccc(OC)cc2)nc2ccccc21`
output: 27 µM

input: Look up AC50: `N=C(N)NC(=O)Cc1c(Cl)cccc1Cl`
output: > 30 µM

input: Look up AC50: `NS(=O)(=O)c1ccc(N2CCCCS2(=O)=O)cc1`
output: > 30 µM

Next:
input: Look up AC50: O=C(C[S+]([O-])Cc1ccco1)NC/C=C\COc1cc(CN2CCCCC2)ccn1 (stereo not given)
output: > 10 µM

input: Look up AC50: `Cn1cnc2c(F)c(Nc3ccc(Br)cc3F)c(C(=O)NOCCO)cc21`
output: > 30 µM

input: Look up AC50: CC1Cc2ccccc2N1NC(=O)c1ccc(Cl)c(S(N)(=O)=O)c1 (stereo not given) [INDAPAMIDE]
output: > 30 µM

input: Look up AC50: `CN(C)CCN(Cc1ccccc1)c1ccccn1`
output: > 10 µM

input: Look up AC50: CN1CC2c3ccccc3Oc3ccc(Cl)cc3C2C1 (stereo not given)
output: > 30 µM
